Attribution: patent US10131664B2

Here the recorded IC50 is given for each entry.
test system: THP-1 (AML) cells; assay: LSD1 CD11b cellular assay (flow cytometry); assay type: cell-based; settings: Homo sapiens, 96 h; CD11b expression in THP-1 (AML) cells, flow cytometry, 4 days incubation; read-out: Cellular IC50

Examples with their reported IC50 follow.
# structureNotation, assayedTarget, experimentalValue
records = [
    ("Cn1cnc2cc(-c3cnc(N4CCC(N)CC4)nc3-c3ccc(C#N)c(F)c3)ccc21", "THP-1 (AML) cells", "< 100 nM"),
    ("N#Cc1ccc(-c2nc(NC[C@H]3CCNC3)ncc2C#CC2CC2)cc1", "THP-1 (AML) cells", "100 to 1000 nM"),
    ("Cn1cc2cc(-c3cnc(N4CCC(N)CC4)nc3-c3ccc(C#N)c(F)c3)ccc2n1", "THP-1 (AML) cells", "< 100 nM"),
]

Now turn to the next compound.
Sample `N#Cc1ccc(-n2nc(C(=O)N3CCC[C@@H](N)C3)cc2OCc2ccncc2)cc1` — what was its IC50? 1000 to 10000 nM

====

system: THP-1 (AML) cells; test: LSD1 CD11b cellular assay (flow cytometry); assay type: cell-based; conditions: Homo sapiens, 96 h; CD11b expression in THP-1 (AML) cells, flow cytometry, 4 days incubation; read-out: Cellular IC50
pIC50: −log10 of the molar value.
experimentalEndpoint: pIC50

# compound, pIC50
rows = [
    ("N#Cc1ccc(-c2nc(N3CCC(N)CC3)ncc2-c2cnn(C3CCOC3)c2)cc1 (stereo not shown)", "6.00 to 7.00"),
    ("N#Cc1ccc(-c2nc(N3CCC(N)CC3)ncc2C#CC2(O)CCCC2)cc1", "> 7.00"),
]

Sample `N#Cc1ccc(-c2nc(N3CCC(N)CC3)ncc2-c2ccc3c(c2)ncn3C(F)F)cc1` — what was its pIC50? > 7.00

Sample `Cc1ccc(-c2cnc(OC[C@@H]3CCNC3)nc2-c2ccc(C#N)cc2)cc1` — what was its pIC50? 6.00 to 7.00

====

Here the recorded IC50 is given for each entry.
system: THP-1 (AML) cells; test: LSD1 CD11b cellular assay (flow cytometry); type: cell-based; details: Homo sapiens, 96 h; CD11b expression in THP-1 (AML) cells, flow cytometry, 4 days incubation; read-out: Cellular IC50
Where a name gives a salt, the structure may show the parent alone.

Examples with their reported IC50 follow.
# compound, IC50
rows = [
    ("COc1nc(N2CCC(N)CC2)nc(-c2ccc(C#N)cc2)c1-c1ccc2c(c1)nnn2C [Example 154]", "< 100 nM"),
    ("COc1ccc(-c2nc3ccn(C[C@@H]4CCNC4)c3cc2-c2ccc(C#N)cc2)cc1F [Example 50, HCl salt]", "< 100 nM"),
]

Sample CNC1CCN(c2ncc(-c3cnn(CC(F)(F)F)c3)c(-c3ccc(C#N)c(F)c3)n2)CC1 [Example 89] — what was its IC50? < 100 nM

Sample N#Cc1ccc(-c2cc3c(ccn3C[C@H]3CNCCO3)nc2-c2ccc(F)cc2)cc1 [Example 11] — what was its IC50? 1000 to 10000 nM

====

system: THP-1 (AML) cells; assay: LSD1 CD11b cellular assay (flow cytometry); assay type: cell-based; conditions: Homo sapiens, 96 h; CD11b expression in THP-1 (AML) cells, flow cytometry, 4 days incubation; read-out: Cellular IC50
Here the recorded IC50 is given for each entry.

Examples with their reported IC50 follow.
# compound, IC50
measured = [
    ("Cc1ccc(-c2cc(NC[C@H]3[C@@H]4CNC[C@@H]43)nn2-c2ccc(C#N)cc2)cc1", "100 to 1000 nM"),
    ("Cc1ccc(-c2cnc(N3CC4CNCC(C4)C3)nc2-c2ccc(C#N)cc2)cc1", "100 to 1000 nM"),
    ("Cc1ccc(-c2cnc(NC3CCCNC3)nc2-c2ccc(C#N)cc2)cc1 (single isomer, unassigned; (+))", "100 to 1000 nM"),
]

Sample `Cc1ccc(-c2nc3cnn(C[C@H]4[C@@H]5CNC[C@@H]54)c3cc2-c2ccc(C#N)cc2)cc1` — what was its IC50? < 100 nM

====

system: THP-1 (AML) cells; test: LSD1 CD11b cellular assay (flow cytometry); format: cell-based; conditions: Homo sapiens, 96 h; CD11b expression in THP-1 (AML) cells, flow cytometry, 4 days incubation; read-out: Cellular IC50
experimentalEndpoint: IC50

# compound, assayedTarget, IC50
rows = [
    ("CNc1nc(N2CCC(N)CC2)nc(-c2ccc(C#N)cc2)c1-c1cnc2c(c1)nnn2C", "THP-1 (AML) cells", "< 0.1 µM"),
    ("COc1nc(N2CCC(N)CC2)nc(-c2ccc(C#N)c(F)c2)c1-c1ccc2c(c1)nnn2C", "THP-1 (AML) cells", "< 0.1 µM"),
    ("Cn1cnc2cc(-c3cnc(N4CCC(N)CC4)nc3-c3ccc(C#N)c(F)c3)c(F)c(F)c21", "THP-1 (AML) cells", "< 0.1 µM"),
    ("Cn1cc2ncc(-c3cnc(N4CCC(N)CC4)nc3-c3ccc(C#N)cc3)cc2n1", "THP-1 (AML) cells", "0.1 to 1 µM"),
    ("N#Cc1ccc(-c2nc(N3CCC(N)CC3)ncc2C#CC2(O)CCOCC2)cc1F", "THP-1 (AML) cells", "0.1 to 1 µM"),
]

Sample `N#Cc1ccc(-c2cc3c(ccn3C[C@@H]3CCNC3)nc2N2CCOCC2)cc1` — what was its IC50? 1 to 10 µM

Sample `COc1nc(N2CCC(N)CC2)nc(-c2ccc(C#N)cc2)c1-c1ccc(N(C)C)nc1` — what was its IC50? < 0.1 µM

Sample N#Cc1ccc(-c2nc(N3CCC(N)CC3)ncc2C#CC2(O)CCOC2)cc1F (centres unmarked) — what was its IC50? < 0.1 µM

====

test system: THP-1 (AML) cells; test: LSD1 CD11b cellular assay (flow cytometry); type: cell-based; details: Homo sapiens, 96 h; CD11b expression in THP-1 (AML) cells, flow cytometry, 4 days incubation; read-out: Cellular IC50
Here the recorded IC50 is given for each entry.

Examples with their reported IC50 follow.
# compound, IC50
measured = [
    ("N#Cc1ccc(-c2cc3c(ccn3C[C@H]3CCNC3)nc2Cl)cc1 [Example 4]", "1000 to 10000 nM"),
    ("CNc1nc(N2CC[C@H](N)[C@H](F)C2)nc(-c2ccc(C#N)cc2)c1-c1ccc2nn(C)cc2c1 [Example 178]", "< 100 nM"),
    ("Cn1cc2cc(-c3cnc(N4CCC(N)CC4)nc3-c3ccc(C#N)cc3)cnc2n1 [Example 85]", "100 to 1000 nM"),
]

Now turn to the next compound.
Sample Cc1ccc(-c2nc3ccn(CC4(F)CCNC4)c3cc2-c2ccc(C#N)cc2)cc1 (stereo not shown) [Example 9] — what was its IC50? 100 to 1000 nM

====

system: THP-1 (AML) cells; experiment: LSD1 CD11b cellular assay (flow cytometry); format: cell-based; conditions: Homo sapiens, 96 h; CD11b expression in THP-1 (AML) cells, flow cytometry, 4 days incubation; read-out: Cellular IC50
Here the recorded IC50 is given for each entry.

# compound, IC50
records = [
    ("Cc1ccc(-c2cc(NC[C@@H]3CCNC3)nn2-c2ccc(C#N)cc2)cc1", "100 to 1000 nM"),
]

Can you look up IC50 on THP-1 (AML) cells for `N#Cc1ccc(-c2nc(N3CCC(N)CC3)ncc2-c2ccc(OCC(F)(F)F)nc2)cc1` ? 100 to 1000 nM

Can you look up IC50 on THP-1 (AML) cells for `Cn1nnc2cc(-c3cnc(N4CCC(N)CC4)nc3-c3ccc(C#N)cc3)ccc21` ? < 100 nM

Can you look up IC50 on THP-1 (AML) cells for `N#Cc1ccc(-n2nc(C(=O)N3CCC[C@@H](N)C3)cc2OCc2cccnc2)cc1` ? 100 to 1000 nM

Can you look up IC50 on THP-1 (AML) cells for `COc1nc(N2CCC(N)CC2)nc(-c2ccc(C#N)c(F)c2)c1-c1cnc2c(cnn2C)c1` ? < 100 nM

Can you look up IC50 on THP-1 (AML) cells for `Cn1cnc2cc(-c3cnc(N4CCC5(CCNC5)CC4)nc3-c3ccc(C#N)c(F)c3)cnc21` ? < 100 nM

Can you look up IC50 on THP-1 (AML) cells for `Cn1cnc2cc(-c3cnc(N4CCC(N)CC4)nc3-c3ccc(C#N)cc3)ccc21` ? < 100 nM

Can you look up IC50 on THP-1 (AML) cells for `Cn1nc2ccc(-c3cnc(N4CCC(N)CC4)nc3-c3ccc(C#N)c(F)c3)cc2c1N` ? < 100 nM

Can you look up IC50 on THP-1 (AML) cells for Cn1ncc2cc(-c3cnc(N4CCC5CNCC5CC4)nc3-c3ccc(C#N)cc3)cnc21 (stereo not shown) ? < 100 nM

Can you look up IC50 on THP-1 (AML) cells for `Cn1cnc2cc(-c3cnc(N4CCC(N)CC4)nc3-c3ccc(C#N)cc3)c(F)cc21` ? < 100 nM
